- System: Trypanosoma cruzi
- protocol: Trypanosoma cruzi phosphomannomutase and mannose-1-phosphate guanylyltransferase assay
- Assay type: functional
- Set-up: scale not given: direction of the effect not stated beside the values
- reportedConditions: 10 µM
# Percent Effect per record follows
valueType: Percent Effect (%)

[[record]]
compound = "Cc1occc1C(=O)N1CCc2c(COCC3CC3)cncc2C1"
valuetype = "Percent Effect"
unitofmeasure = "%"
reported = 3.03

[[record]]
compound = "Cc1nnc(N2CCC(CN(C)C(C)C)CC2)c(C#N)c1C"
valuetype = "Percent Effect"
unitofmeasure = "%"
reported = 9.89

[[record]]
compound = "CC(O)CN1CCN(Cc2nnc(C3CC3)o2)CC1 (stereo not given)"
valuetype = "Percent Effect"
unitofmeasure = "%"
reported = 6.7

[[record]]
compound = "CC(c1nc(C2CC2)no1)N1CCN(CCOCC(F)(F)F)CC1 (stereo not given)"
valuetype = "Percent Effect"
unitofmeasure = "%"
reported = 1.95

[[record]]
compound = "COCCNC(=O)C[C@@H]1COC[C@H]2CN(C(=O)c3cnccn3)C[C@@H]12"
valuetype = "Percent Effect"
unitofmeasure = "%"
reported = 6.15

[[record]]
compound = "O=C(CCOCc1ccccc1)N1CCCC1c1noc(C2CC2)n1 (stereo not given)"
valuetype = "Percent Effect"
unitofmeasure = "%"
reported = 1.23

[[record]]
compound = "CCC(O)CN1CCN(C(=O)c2ccnc(N(C)C)c2)CC1 (stereo not given)"
valuetype = "Percent Effect"
unitofmeasure = "%"
reported = 6.37

[[record]]
compound = "COc1ccc(-n2ccc(C(=O)N3CCC(C(N)=O)C3)n2)cc1 (stereo not given)"
valuetype = "Percent Effect"
unitofmeasure = "%"
reported = -4.55

[[record]]
compound = "Cc1ncsc1CCC(=O)NCc1cc2n(n1)CCN(C(=O)N(C)C)C2"
valuetype = "Percent Effect"
unitofmeasure = "%"
reported = -4.96

[[record]]
compound = "COc1ccccc1CC(=O)NS(=O)(=O)c1ccc(C(N)=O)cc1"
valuetype = "Percent Effect"
unitofmeasure = "%"
reported = -0.374

[[record]]
compound = "Cn1cc(CCNC(=O)CCc2ccc3c(c2)OCO3)cn1"
valuetype = "Percent Effect"
unitofmeasure = "%"
reported = -9.75

[[record]]
compound = "Cc1noc(CCCC(=O)NC(C)c2cccnc2)n1 (stereo not given)"
valuetype = "Percent Effect"
unitofmeasure = "%"
reported = -5.83

[[record]]
compound = "CSCCCN1CCCC1c1noc(C)n1 (stereo not given)"
valuetype = "Percent Effect"
unitofmeasure = "%"
reported = 6.39

[[record]]
compound = "COCCO[C@H]1CCN(Cc2cccs2)[C@H]1Cc1cccnc1"
valuetype = "Percent Effect"
unitofmeasure = "%"
reported = 6.35

[[record]]
compound = "CNc1cc(N2CCCC2CNCc2ccccn2)ncn1 (stereo not given)"
valuetype = "Percent Effect"
unitofmeasure = "%"
reported = -2.93


====

Some compounds, each annotated with its measured Percent Effect.
- Tested on: Trypanosoma cruzi
- protocol: Trypanosoma cruzi phosphomannomutase and mannose-1-phosphate guanylyltransferase assay
- Assay type: functional
- Set-up: scale not given: direction of the effect not stated beside the values
- reportedConditions: 10 µM
valueType: Percent Effect (%)

[[record]]
compound = "Cc1cc(=O)[nH]c(NCCNC(=O)C(c2ccc(F)cc2)N(C)C)n1 (centres undefined)"
reported = -9.72

[[record]]
compound = "Cc1cc(C2CCCN(C(=O)c3cnn(C)c3)C2)ccn1 (centres undefined)"
reported = 5.93

[[record]]
compound = "Cn1cc(-c2csc(N3CCN(C(=O)OC(C)(C)C)CC3)n2)cn1"
reported = 1.85

[[record]]
compound = "O=C(Cn1cnc(-c2ccccc2)cc1=O)Nc1ccncc1"
reported = 2.07

[[record]]
compound = "Cc1ccc(C(=O)N2CCSCC2)cc1NC(=O)NCCO"
reported = 1.39

[[record]]
compound = "C=C(Cl)CN1CCC(C(=O)c2cc(F)ccc2F)CC1"
reported = 4.32

[[record]]
compound = "Cc1ccc(C(=O)N2CC[C@@H]3[C@H]2CCC(=O)N3c2ccccc2)o1"
reported = 0.591

[[record]]
compound = "Cc1ccn(-c2ccccc2NCc2ncc[nH]2)n1"
reported = 0.783

[[record]]
compound = "CCCc1ncc(C(=O)N2CCOC(c3nc(C)n[nH]3)C2)s1 (centres undefined)"
reported = -6.46

[[record]]
compound = "CC(C)OCCOCc1cccc(NC(=O)NCc2ccccn2)c1"
reported = 6.79

[[record]]
compound = "COCC(=O)N1CCCC1c1cc(Nc2nnc(C)s2)nc(C)n1 (centres undefined)"
reported = 7.09

[[record]]
compound = "CSCCC1c2nc[nH]c2CCN1Cc1cc(Cl)ccc1O (centres undefined)"
reported = 2.63

[[record]]
compound = "c1ccc(-n2ncc(CNCC3CCCN3c3cccnn3)n2)cc1 (centres undefined)"
reported = 11.7

[[record]]
compound = "c1cnnc(N2CCCC2CNc2nc3ccccc3o2)c1 (centres undefined)"
reported = 1.33

[[record]]
compound = "CN(Cc1ccccc1F)C(=O)CS(=O)(=O)Cc1ccc(Cl)c(Cl)c1"
reported = 2.06

[[record]]
compound = "COCC1CN(Cc2ccncc2)Cc2nnn(CC3CC3)c21 (centres undefined)"
reported = 0.688

[[record]]
compound = "CN(CC(=O)N1CCN(c2ncccn2)CC1)c1ccc(Cl)cn1"
reported = 5.79

[[record]]
compound = "CCC(CC)C(CNC(=O)Nc1ccc(C)cc1)N1CCOCC1 (centres undefined)"
reported = 4.63

[[record]]
compound = "CCc1ncc(CN(C)C(=O)Nc2cccnc2N2CCCC2)s1"
reported = 7.38

[[record]]
compound = "Cc1cc(C)c2nc(CN3CC[C@@H](O)C3)cc(O)c2c1"
reported = -1.16

[[record]]
compound = "CS(=O)(=O)N1CC[C@]2(C[C@@H](OCC3CCC3)CO2)C1"
reported = 2.64

[[record]]
compound = "Cc1ccc(NS(=O)(=O)CC2=NC(=O)n3cccc3C2=O)cc1"
reported = 1.97

[[record]]
compound = "c1ccc(NCc2cn3c(n2)CN(Cc2cccnc2)CC3)nc1"
reported = -2.83

[[record]]
compound = "COc1cccc(CN(C)C(=O)CCC(=O)c2ccc(Cl)cc2)c1OC"
reported = -0.992

[[record]]
compound = "Cc1cccc(-n2ncc(C(=O)N3CCn4c(C)nnc4C3)c2C)c1"
reported = -4.58

[[record]]
compound = "COCC1c2c(cnn2CC2CC2)CCN1Cc1cccs1 (centres undefined)"
reported = -2.51

[[record]]
compound = "COc1ccccc1S(=O)(=O)Nc1ccc2c(C(=O)O)c[nH]c2c1"
reported = 8.05

[[record]]
compound = "Cc1nnc(N2C[C@H](C(=O)NCC3CC3)[C@@H]3CCO[C@@H]3C2)s1"
reported = -6.02

[[record]]
compound = "CC1c2ncc(Cn3cncn3)n2CCN1C(=O)C1CCOCC1 (centres undefined)"
reported = 4.83

[[record]]
compound = "Cc1cnn(CC(C)NCc2csc(-c3ccco3)n2)c1 (centres undefined)"
reported = -5.44

[[record]]
compound = "CC(=O)N1CCCCC1c1cc(C(=O)N2CCOCC2)[nH]n1 (centres undefined)"
reported = -1.38

[[record]]
compound = "O=C(CSc1nc2c(cnn2CCO)c(=O)[nH]1)N1CCCCCC1"
reported = -3.33

[[record]]
compound = "O=C(CN1CCCC1Cn1cncn1)NCCc1c(F)cccc1F (centres undefined)"
reported = 11.9

[[record]]
compound = "Cn1nnc2c1CCN(CC1CC1)C2COCc1ccccc1 (centres undefined)"
reported = 2.36

[[record]]
compound = "CN(Cc1nccn1CC(F)(F)F)C(=O)c1ccc(F)c(F)c1"
reported = -1.46

[[record]]
compound = "COCC1CN(Cc2ccc(C)o2)Cc2nnn(CC3CC3)c21 (centres undefined)"
reported = -2.46

[[record]]
compound = "COCC1c2c(cnn2C)CCN1Cc1ccc(F)cc1 (centres undefined)"
reported = -2.93

[[record]]
compound = "CC(C)Nc1nc2c(cc1C(=O)N(C)C)CCNCC2"
reported = -0.772

[[record]]
compound = "COc1ccc(C(=O)N2CCCCC2c2nc(C)cs2)nn1 (centres undefined)"
reported = 10.3

[[record]]
compound = "Cc1cc(C)n(C2CCCN(C(=O)CCCNc3ncccn3)C2)n1 (centres undefined)"
reported = 3.38

[[record]]
compound = "CC(C)(C)NC(=O)C1CSCN1S(=O)(=O)c1cccc(F)c1 (centres undefined)"
reported = -8.81

[[record]]
compound = "CC(O)CN1CCN(C(=O)c2ccn(-c3cccc(Cl)c3)n2)CC1 (centres undefined)"
reported = -6.93

[[record]]
compound = "Cc1noc(C(C)C)c1C(=O)NCc1cc(F)cc(F)c1"
reported = -7.12

[[record]]
compound = "CN(C)c1ccc(CNC(=O)c2ccc(Cl)cc2F)cc1"
reported = 1.46

